Value source: the supplement of paper PMC7877785

Assign self-splicing fitness (ln) to each entry below.
assay: self-splicing fitness, log relative to wild type (ln ratio); higher = more splicing; Tetrahymena group I intron in knt gene, E. coli kanamycin selection, DiMSum; sequences stand for … in CUCUCU…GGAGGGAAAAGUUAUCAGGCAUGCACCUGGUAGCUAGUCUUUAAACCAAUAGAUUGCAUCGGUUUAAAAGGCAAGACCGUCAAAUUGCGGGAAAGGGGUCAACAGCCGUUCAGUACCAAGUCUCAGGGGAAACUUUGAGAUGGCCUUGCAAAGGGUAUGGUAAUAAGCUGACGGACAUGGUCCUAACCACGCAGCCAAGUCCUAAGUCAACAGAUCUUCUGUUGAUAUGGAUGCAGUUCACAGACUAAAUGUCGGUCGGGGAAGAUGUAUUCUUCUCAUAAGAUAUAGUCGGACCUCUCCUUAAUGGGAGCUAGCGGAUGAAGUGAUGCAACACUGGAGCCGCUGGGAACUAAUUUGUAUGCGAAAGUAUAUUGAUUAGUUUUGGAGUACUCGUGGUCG; settings: 30 °C;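 note: selection with 25 µg/mL kanamycin versus none on LB agar overnight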
Lab note: jot the number down without any unit.

Prompt: Requested field: self-splicing fitness (ln). Item: UAUGAGCAAUAUUACGUUGA
Response: -2.96

Prompt: Requested field: self-splicing fitness (ln). Item: CAUAAGCAAUAUUACGCGUG
Response: -3.79

Prompt: Requested field: self-splicing fitness (ln). Item: UCAAAGCAAUAUUACGGUGU
Response: -2.8

Prompt: Requested field: self-splicing fitness (ln). Item: UGAGAGCAAUAUUACGAGUG
Response: -4.04

Prompt: Requested field: self-splicing fitness (ln). Item: UAACAGCAAUAUUACGCUUG
Response: -0.975

Prompt: Requested field: self-splicing fitness (ln). Item: CAGUAGCAAUAUUACGACAA
Response: -1.98

Prompt: Requested field: self-splicing fitness (ln). Item: CUAAAGCAAUAUUACGCGUU
Response: -3.08

Prompt: Requested field: self-splicing fitness (ln). Item: AUGGAGCAAUAUUACGAGCA
Response: -2.33

Prompt: Requested field: self-splicing fitness (ln). Item: AUAAAGCAAUAUUACGACAU
Response: 0.424

Prompt: Requested field: self-splicing fitness (ln). Item: CGCGAGCAAUAUUACGGGAU
Response: -4.13

Prompt: Requested field: self-splicing fitness (ln). Item: AUGAAGCAAUAUUACGUGCU
Response: -1.69

Prompt: Requested field: self-splicing fitness (ln). Item: GAGGAGCAAUAUUACGAAGA
Response: -2.19

Prompt: Requested field: self-splicing fitness (ln). Item: UGAUAGCAAUAUUACGCAUU
Response: -2.52

Prompt: Requested field: self-splicing fitness (ln). Item: UACUAGCAAUAUUACGCACG
Response: -0.877

Prompt: Requested field: self-splicing fitness (ln). Item: CUGAAGCAAUAUUACGUACA
Response: -2.36

Prompt: Requested field: self-splicing fitness (ln). Item: UCAAAGCAAUAUUACGUGAU
Response: -3.95
